# Test protocol: Efflux ratio of permeability in pig LLC-PK1 cells
# Type: ADME, cell-based, Sus scrofa
Binary classification by efflux ratio, with 1 as an inclusive lower bound for YES; all other cases are NO.

These recorded examples may help you get a feel for the data.
| Mol smiles | Classification |
| --- | --- |
| Cn1cc(C(=O)Nc2ccc(-c3ccccc3)c(C(F)(F)F)c2)c(=O)c2cnccc21 | NO |
| Cn1cc(C(=O)Nc2ccc(-c3cccnc3)c(C(F)(F)F)c2)c(=O)c2ccccc21 | YES |
| Cn1cc(C(=O)Nc2ccc(-c3ccncc3)c(C(F)(F)F)c2)c(=O)c2ccccc21 | YES |
| Cn1cc(C(=O)Nc2cnc(-c3ccccc3)c(C(F)(F)F)c2)c(=O)c2ccccc21 | YES |

INPUT: efflux ratio >= 1 for `Cn1cc(C(=O)Nc2ccc(-c3ccccc3)c(C(F)(F)F)c2)c(=O)c2ccccc21` ?
OUTPUT: NO

INPUT: Kindly determine if efflux ratio recorded for `Cn1cc(C(=O)Nc2ccc(-c3ccccc3)c(C(F)(F)F)c2)c(=O)c2cccnc21` is above or exactly 1.
OUTPUT: YES

INPUT: Check this compound for efflux ratio at or above 1: `Cn1cc(C(=O)Nc2ccc(-c3ccccn3)c(C(F)(F)F)c2)c(=O)c2ccccc21`
OUTPUT: NO

INPUT: Decide: efflux ratio of `Cn1nc(C(=O)Nc2ccc(-c3ccccc3)c(C(F)(F)F)c2)c(=O)c2ccccc21` >= 1?
OUTPUT: YES

INPUT: Given the entry `Cn1cc(C(=O)Nc2ccc(-c3ccccc3)c(C(F)(F)F)c2)c(=O)c2ncccc21` , answer whether its efflux ratio meets or surpasses 1.
OUTPUT: YES

* * *

What half-life was measured for each of the following?
# Test protocol: Half life in Sprague-Dawley rat at 1 mg/kg, iv
# Type: ADME, organism-based
# Design: dose 1 mg/kg, route intravenous
# Run parameters: in vivo
# answer = value followed by unit

| Mol smiles | half-life |
| --- | --- |
| Cn1cc(C(=O)Nc2ccc(-c3ccccc3)c(C(F)(F)F)c2)c(=O)c2ccccc21 | 15 h |
| Cn1cc(C(=O)Nc2ccc(-c3ccccc3)c(C(F)(F)F)n2)c(=O)c2cnccc21 | 24 h |

Shifting focus to the compound that follows.
INPUT: Consider the compound shown here: `Cn1cc(C(=O)Nc2ccc(-c3ccccc3)c(C(F)(F)F)c2)c(=O)c2cnccc21` What is its recorded half-life?
OUTPUT: 41 h

* * *

# Test protocol: Oral bioavailability in Sprague-Dawley rat at 3 mg/kg
# Assay type: ADME, organism-based
# Run parameters: Sprague-Dawley, in vivo
Please provide measured bioavailability for the entries that follow.

| Mol smiles | Result |
| --- | --- |
| Cn1cc(C(=O)Nc2ccc(-c3ccccc3)c(C(F)(F)F)c2)c(=O)c2ccccc21 | 60% |

INPUT: So what does the record say about bioavailability for `Cn1cc(C(=O)Nc2ccc(-c3ccccc3)c(C(F)(F)F)n2)c(=O)c2cnccc21` ?
OUTPUT: 110%

* * *

# Test protocol: Apparent permeability of the compound in pig LLC-PK1 cells
# Format: ADME, cell-based, Sus scrofa
For each entry below, report its Papp value.

Recorded Papp, per entry:
| Mol smiles | Papp |
| --- | --- |
| Cn1cc(C(=O)Nc2ccc(-c3ccccc3)c(C(F)(F)F)c2)c(=O)c2ccccc21 | 1.2 ×10⁻⁶ cm/s |
| Cn1cc(C(=O)Nc2ccc(-c3ccccc3)c(C(F)(F)F)c2)c(=O)c2ccncc21 | 3.4 ×10⁻⁶ cm/s |
| Cn1cc(C(=O)Nc2cc(C(F)(F)F)c(-c3ccccc3)cn2)c(=O)c2ccccc21 | < 1 ×10⁻⁶ cm/s |
| Cn1cc(C(=O)Nc2ccc(-c3ccccn3)c(C(F)(F)F)c2)c(=O)c2cnccc21 | 16 ×10⁻⁶ cm/s |
| Cn1cc(C(=O)Nc2cnc(-c3ccccc3)c(C(F)(F)F)c2)c(=O)c2ccccc21 | 11 ×10⁻⁶ cm/s |
| Cn1cc(C(=O)Nc2ccc(-c3ccccn3)c(C(F)(F)F)n2)c(=O)c2cnccc21 | 15 ×10⁻⁶ cm/s |
| Cn1cc(C(=O)Nc2ccc(-c3ccccc3)c(C(F)(F)F)n2)c(=O)c2ccccc21 | < 1 ×10⁻⁶ cm/s |

Turning now to a further record.
INPUT: # get_value(readout='Papp', item= `Cn1cc(C(=O)Nc2ccc(-c3cccnc3)c(C(F)(F)F)c2)c(=O)c2ccccc21` )
OUTPUT: 18 ×10⁻⁶ cm/s

* * *

# Test protocol: Solubility of the compound in 0.010 M aqueous hydrogen chloride at pH 7.4
# Format: physicochemical
# Run parameters: in the assay text read “hydrogen chloride” for “hydrogen chloride at pH 7.4”
Reported property: solubility

| Mol smiles | Reported property | Result |
| --- | --- | --- |
| Cn1cc(C(=O)Nc2ccc(-c3ccccn3)c(C(F)(F)F)n2)c(=O)c2cnccc21 | solubility | > 200 µg/mL |

Provide solubility values for the following items, in order.
1. Cn1cc(C(=O)Nc2ccc(-c3ccccc3)c(C(F)(F)F)c2)c(=O)c2cccnc21
2. Cn1cc(C(=O)Nc2ccc(-c3ccccc3)c(C(F)(F)F)n2)c(=O)c2ccccc21

OUTPUT:
["< 1 µg/mL", "< 1 µg/mL"]

* * *

Please provide measured solubility for the entries that follow.
# Test protocol: Solubility of the compound in simulated intestinal fluid at pH 7.4
# Type: physicochemical
Answers are plain numbers, in µg/mL.

Solved cases below.
| Mol smiles | Reported property | Result |
| --- | --- | --- |
| Cn1cc(C(=O)Nc2ccc(-c3ccccn3)c(C(F)(F)F)c2)c(=O)c2cnccc21 | solubility | 6.7 |
| Cn1cc(C(=O)Nc2ccc(-c3ccccc3)c(C(F)(F)F)c2)c(=O)c2cnccc21 | solubility | 4.9 |
| Cn1cc(C(=O)Nc2cnc(-c3ccccc3)c(C(F)(F)F)c2)c(=O)c2ccccc21 | solubility | 13 |
| Cn1cc(C(=O)Nc2ccc(-c3ccccc3)c(C(F)(F)F)n2)c(=O)c2ccccc21 | solubility | 2.3 |

# context switch: different molecule, same solubility
INPUT: # get_value(readout='solubility', item= `Cn1cc(C(=O)Nc2ccc(-c3cccnc3)c(C(F)(F)F)c2)c(=O)c2ccccc21` )
OUTPUT: 6.7

Value source: ChEMBL document CHEMBL1938299
